# Cellular binding assay [RFU] values compiled below
# Measurement target: T1, CD27 expressed on the cell surface (HT1080_CD27 cells) (human, UniProt P26842 20-260)
# T1 construct: whole, on cells; also called K562_CD27
# T1 sequence (looked up): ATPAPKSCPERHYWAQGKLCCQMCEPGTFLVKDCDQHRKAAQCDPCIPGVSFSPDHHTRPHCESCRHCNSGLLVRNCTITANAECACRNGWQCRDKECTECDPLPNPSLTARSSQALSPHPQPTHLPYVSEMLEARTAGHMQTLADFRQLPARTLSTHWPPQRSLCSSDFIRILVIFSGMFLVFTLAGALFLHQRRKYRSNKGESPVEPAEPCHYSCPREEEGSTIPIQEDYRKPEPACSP
# Protocol notes: cellular binding assay, HT1080_CD27 cells; further: test concentration or dose not given here
Assay endpoint: Cellular binding assay [RFU]

{"Binder": "P018.S.01.A.D02 (antibody, V domains shown, V regions on human Ig constant parts; also called AB27_11) VH: QSLEESGGRLVTPGTPLTLTCTASGFSLSKYDMGWFRQAPGKGLEWIGMIGASDSTYYASWVKGRFTISKTSTTVDLRITSPTTEDTATYFCAREYPDARGYYYNLWGPGTPVTVSS VL: ALVMTQTPASVEAAVGGTVTINCQASQSISDLLAWYQQKPGQPPKPLIYDASDLASGVPSRFKGSGSGTQFTLTISGVQSDDAATYYCQQGYSITNVDNVFGGGTEVVVK", "Assay endpoint": "Cellular binding assay [RFU]", "Result": "323 RFU"}
{"Binder": "P018.S.03.A.B02 (antibody, V domains shown, V regions on human Ig constant parts; also called AB27_42) VH: QSLEESGGRLVTPGTPLTLTCTASGFSLSSYDMNWVRQAPGEGLEWIGTITTNSDTYYASWAKGRFTISKTSTTVDLKITSPTTEDTATYFCARGYTTFTLWGQGTLVTVSS VL: DPVLTQTPSSASEPVGGTVTINCQASQNIYSNLAWYQQKPGQPPKLLIYGASTLESGVPSRFSGSGSGTQFTLTISDLESDDAATYYCQCTDYDSNYVVDFGGGTEVVVK", "Assay endpoint": "Cellular binding assay [RFU]", "Result": "308 RFU"}
{"Binder": "P018.S.06.A.B03 (antibody, V domains shown, V regions on human Ig constant parts; also called AB27_99) VH: QSVEESGGRLVTPGTPLTLTCTVSGFSLSSYDMIWVRQAPGKGLEWIGIIYLTDTTYYANWAKGRFTISKTSTTVDLKISSPTTEDTATYFCARHLDTSSGGFYFNLWGQGTLVTVSS VL: AQVLTQTPSSVSAAVGGTVTINCQASQSVYNSKILAWYQQKPGRPPKLLIYDASTLASGVPSRFKGSGSGTQFTLTISGVQSDDAATYFCQGEFTCTSADCIAFGGGTEVVVK", "Assay endpoint": "Cellular binding assay [RFU]", "Result": "424 RFU"}
